Would you kindly list Population Mitotic Cells (%) for each of these molecules?
- Test system: Fibroblast
- Test protocol: Multiplex assay against human fibroblast
- Type: toxicity, cell-based
- Assay setup: 48 h, 10 µM, compound concentration 10 uM, replicate 1

Would you please look over these solved cases?
                                   molecule             measured_property  result_value
0  Cl.O=C(c1ccc(Nc2nccc(-c3cc4ccccc4s3)n2)cc1)N1CCC(N2CCCC2)CC1  Population Mitotic Cells (%)            8%
1  CN(C)C(=O)C(CCN1CCC(O)(c2ccc(Cl)cc2)CC1)(c1ccccc1)c1ccccc1.Cl [LOPERAMIDE HYDROCHLORIDE]  Population Mitotic Cells (%)           13%
2  CCCS(=O)(=O)c1nc(NC2CC2)cc(-c2ccc3c(ccn3C3CC(C)(C)NC(C)(C)C3)c2)n1  Population Mitotic Cells (%)           23%
3  O=C(Nc1ccc(Cl)cc1)Nc1cccc(-c2cccc(N3CCCC3)n2)c1  Population Mitotic Cells (%)            5%
4  CNc1cc(Oc2cc(C(=O)Nc3cc(N4CCN(C)CC4)cc(C(F)(F)F)c3)ccc2C)ncn1  Population Mitotic Cells (%)           24%
5  Cc1cc(C)c(S(=O)(=O)N(Cc2ccc(-c3cccc(S(C)(=O)=O)c3)cc2)Cc2ccc(C(F)(F)F)o2)c(C)c1  Population Mitotic Cells (%)            0%
6  Cl.O=c1c2cccn2c2ccccc2n1CCCN1CCC(c2ccc(Cl)cc2)CC1  Population Mitotic Cells (%)           18%

Request: Field: Population Mitotic Cells (%) (Fibroblast). Entry: COCC(=O)NC/C=C/c1ccc2ncnc(Nc3ccc(Oc4ccc(C)nc4)c(C)c3)c2c1
Response: 22%

###

- Test system: Fibroblast
- Test protocol: Multiplex assay against human fibroblast
- Assay type: toxicity, cell-based
- Assay setup: 24 h, 1 µM, compound concentration 1 uM, replicate 1
Measured property: Total Cell Count
Numbers only.

                                   compound  measured_property  result_value
0  CCCS(=O)(=O)c1nc(NC2CC2)cc(-c2ccc3c(ccn3C3CC(C)(C)NC(C)(C)C3)c2)n1   Total Cell Count           114
1  CN1C2CCC1CC(OC(c1ccc(F)cc1)c1ccc(F)cc1)C2.Cl (stereo not drawn)   Total Cell Count            99
2  CCc1cccc(CC)c1NC(=O)c1nn(C)c2c1CCc1cnc(Nc3ccc(N4CCN(C)CC4)cc3OC)nc1-2   Total Cell Count           140
3  COc1cc(N2CCN(C)CC2)ccc1Nc1ncc2c(n1)N(C)c1ccccc1C(=O)N2C   Total Cell Count           159

State recorded Total Cell Count for all listed compounds.
1. CN1CCN(C(=O)C(C)(C)c2ccc(C(=O)Nc3cn4cc(-c5cc(C(C)(C)C)cc(C(C)(C)C)c5)ccc4n3)cc2)CC1 [T3-CLK-N]
2. O=C(Nc1ccc(Cl)cc1)Nc1cccc(-c2cccc(N3CCCC3)n2)c1
3. CCn1cc(-c2ccnc3[nH]c(-c4cccc(CN(C)C)c4)cc23)c(-c2ccc(NC(=O)N(C)C)cc2)n1 [GSK-1070916]
4. CCN1CCN(c2ccc(Nc3cc(N(C)C(=O)Nc4c(Cl)c(OC)cc(OC)c4Cl)ncn3)cc2)CC1 [INFIGRATINIB]

Response:
1: 243; 2: 103; 3: 222; 4: 259
